Measured pIC50, listed per entry.
Tested on: T98G
Experiment: Cytotoxicity against human T98G cells by MTT assay
Assay type: functional, cell-based
pIC50: −log10 of the molar value.
OBSERVED PROPERTY: pIC50

[
  {
    "COMPOUND STRUCTURE": "CCCn1c2cc(OCCC(C)C)ccc2c2cc[n+](CCC)c(C)c21.[Br-]",
    "TEST VALUE": 5.92
  },
  {
    "COMPOUND STRUCTURE": "CCCn1c2cc(OCc3ccccc3)ccc2c2cc[n+](CC)c(C)c21.[Br-]",
    "TEST VALUE": 4.96
  },
  {
    "COMPOUND STRUCTURE": "CCCn1c2cc(OCc3ccccc3)ccc2c2cc[n+](CC(C)C)c(C)c21.[Br-]",
    "TEST VALUE": 5.42
  },
  {
    "COMPOUND STRUCTURE": "CCCn1c2cc(OCCC(C)C)ccc2c2cc[n+](CC)c(C)c21.[Br-]",
    "TEST VALUE": 6.05
  },
  {
    "COMPOUND STRUCTURE": "CCCn1c2cc(OCc3ccccc3)ccc2c2cc[n+](CCC(C)C)c(C)c21.[Br-]",
    "TEST VALUE": 5.82
  },
  {
    "COMPOUND STRUCTURE": "CCCOc1ccc2c3cc[n+](CCC(C)C)c(C)c3n(CCC)c2c1.[Br-]",
    "TEST VALUE": 5.40
  },
  {
    "COMPOUND STRUCTURE": "CCCOc1ccc2c3cc[n+](CC)c(C)c3n(CCC)c2c1.[Br-]",
    "TEST VALUE": 4.66
  }
]
